This collection of values is drawn from PubChem BioAssay.

- TEST SUMMARY: endothelial E-selectin expression blockers – imaging, HUVEC, immunofluorescence, MLSMR starter and 10KST1 sets, primary screen (AID 487);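 further: signal is fraction of cell area covered by stained E-selectin grains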
- PROTOCOL CONDITIONS: HUVEC TNFalpha-induced E-selectin immunofluorescence imaging, at 2 µM; stronger effect = higher value
Listed here: items and their measured inhibition.
Quick reminder: number only, in %, skip the unit.

Kindly note the recorded inhibition for O=c1c2ccccc2nc(-c2cccc(Cl)c2)n1O , which is -4.3

The compound identified as CCOCCCNc1ncnc2c1[nH]c1ccccc12 registered its inhibition at -49.2

* * *

- TEST SUMMARY: blockers of RIG-like receptor reporter activation – cell-based, Sendai virus stimulus, luciferase, 10K MLSCN set, TLR/RLR signaling modifier project, primary screen (AID 602276);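 further: firefly luciferase from ISG56 promoter only with Renilla not read in this screen; 0% = Sendai virus plus DMSO and 100% = medium plus DMSO without virus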
- PROTOCOL CONDITIONS: HEK293 RL24 IRF3 luciferase reporter, at 10 µM, stronger effect = higher value
MEASURED PARAMETER: inhibition (%)
Numeric only. Scale: %

COMPOUND	UNIT	inhibition
CS(=O)(=O)Nc1ccc(C(=O)NCc2ccco2)cc1	%	5.42
CSc1nc(NC(C)(C)C)nc(Oc2ccc(=O)[nH]n2)n1	%	12.8
COc1ccccc1C1c2c(oc3ccc(Cl)cc3c2=O)C(=O)N1c1cc(C)on1 (stereo unspecified)	%	24.8
Cc1noc(C)c1COc1cccc(C(=O)Oc2ccc3c(c2)OCO3)c1	%	8.11
CC1C(O)=C(c2nc3ccccc3[nH]2)C(=N)N1c1ccccc1 (stereo unspecified)	%	-3.95

Now look at this one.
Item: COCCCNC(=O)CCc1nc2cccnc2n1Cc1ccc(OC)cc1 | inhibition: 14.4

* * *

- TEST SUMMARY: reduction of polyQ htt aggregates in cells – imaging, exon1htt(103Q)mCFP cells, high-content imaging, primary screen (AID 483);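 further: compound exposure lasted 3 days before fixation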
- PROTOCOL CONDITIONS: exon1htt(103Q)mCFP cell line, aggregate imaging, at 2 µM; stronger effect = higher value
MEASURED PARAMETER: inhibition of aggregation (%)
Unit % implied. Number only.

Known results for compounds:
COMPOUND	inhibition of aggregation / %
CC(=O)c1cc(-c2ccccc2)n(CC(=O)N2CCC(N3CCCCC3)CC2)c1C	-0.7
COc1ccc(CN(CCN(C)C)c2ccccn2)cc1	-1.2

Sure, the documented inhibition of aggregation for CCC(C)NC(=O)CSC1=Nc2ccccc2C2=NC(CC(=O)NCc3ccccc3)C(=O)N12 (stereo not given) is -9

Item: O=C(CN1CCOCC1)N1CCN(C(=O)CN2CCOCC2)CC1 | inhibition of aggregation: -14

Reported inhibition of aggregation of Cc1ccc(C)c(S(=O)(=O)NCc2ccc(C(=O)N3CCN(C)CC3)cc2)c1 : 27.1

* * *

- TEST SUMMARY: endothelial E-selectin expression blockers – imaging, HUVEC, immunofluorescence, MLSMR starter and 10KST1 sets, primary screen (AID 487);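 further: signal is fraction of cell area covered by stained E-selectin grains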
- PROTOCOL CONDITIONS: HUVEC TNFalpha-induced E-selectin immunofluorescence imaging, at 2 µM; stronger effect = higher value
Catalogue of inhibition readings, one per entry.
# value in %; strip the unit string

COMPOUND	UNIT	inhibition
CC(Oc1ccccc1)C(=O)N1CCCc2ccccc21 (stereo unspecified)	%	-43.6
COc1ccc(-c2coc3c(CN4CCCCC4)c(O)c(CN4CCCCC4)c(O)c3c2=O)cc1	%	-63.6
CCCn1c(SCC(=O)Nc2cc(C)on2)nc2c1c(=O)n(C)c(=O)n2C	%	-36.6
CCOC(=O)c1cc2sccc2n1CC(=O)Nc1ccc(OC)cc1OC	%	-22.6
Cc1[nH]n2c(=O)cc(Cc3ccccc3)nc2c1C#N	%	-15.8
COC(=O)c1ccccc1S(=O)(=O)N(CCCN1CCOCC1)Cc1cccs1	%	-43.1

Kindly note the recorded inhibition for Cc1ccc(NC(=O)CSc2nnc(CSc3nc(C)cc(C)n3)n2Cc2ccco2)c(C)c1 , which is -23.6

Measured inhibition, Cc1cc2c(s1)c1cnn(CC(=O)NCCc3ccccc3)c(=O)c1n2C : -76.9

inhibition recorded for this compound, COC(=O)c1ccccc1NC(=O)c1cc(-c2ccc(OC)c(OC)c2)on1 , is -29.1

// inhibition value for COc1ccc(C2=NOC(C(=O)NCCCN3CCOCC3)C2)cc1 (stereo unspecified) : 11.5

Value of measured inhibition for the entry O=C(Cn1c(SCC(=O)N2CCCc3ccccc32)nc2ccccc21)N1CCCC1 : -126

Kindly note the recorded inhibition for NS(=O)(=O)c1cc2c(cc1Cl)NCNS2(=O)=O , which is -46.3

Sure, the documented inhibition for Cc1cc(-c2ccccc2)c2nncn2n1 is 1.4

inhibition reading for COCCNC(=O)c1ccc2c(c1)nc(C)n2-c1cccc(F)c1 : -16.6
